target: human A2a receptor (Homo sapiens)
Sequence (P29274 whole entry): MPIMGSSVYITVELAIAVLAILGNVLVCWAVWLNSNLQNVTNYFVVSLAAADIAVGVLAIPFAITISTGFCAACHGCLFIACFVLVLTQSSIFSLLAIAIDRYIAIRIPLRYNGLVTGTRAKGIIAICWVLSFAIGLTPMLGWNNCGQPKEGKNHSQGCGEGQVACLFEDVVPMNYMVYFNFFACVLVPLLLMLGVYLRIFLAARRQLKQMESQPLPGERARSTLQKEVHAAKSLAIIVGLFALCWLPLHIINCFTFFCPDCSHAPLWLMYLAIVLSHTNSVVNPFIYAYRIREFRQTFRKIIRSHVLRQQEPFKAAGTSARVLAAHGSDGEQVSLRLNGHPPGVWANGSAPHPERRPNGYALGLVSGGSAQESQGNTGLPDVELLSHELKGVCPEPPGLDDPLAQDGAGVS
pKi: −log10 of the molar value.
We use 8 as the dividing line for pKi: on or above the line is criterion met, below is criterion not met.

Compound	Assigned label
Cc1cc(C)c(CNC(=O)c2nc(C)c(-c3ncco3)nc2N)c(C)c1	criterion met
Cc1nc(C(=O)NCc2cccc[n+]2[O-])c(N)nc1-c1ncco1	criterion met
CCc1ccc(CNC(=O)c2nc(C)c(-c3ncco3)nc2N)cc1	criterion met
Cc1nc(C(=O)NCc2cn(CC3CC3)cn2)c(N)nc1-c1ncco1	criterion met
Cc1c[nH]c(CNC(=O)c2nc(C)c(-c3ncco3)nc2N)n1	criterion met
CN(Cc1cccc2cccnc12)C(=O)c1nc(Cl)c(-n2nccn2)nc1N	criterion not met
Cc1nc(C(=O)NC(C)c2ccccn2)c(N)nc1-c1ncco1 (single isomer, unassigned) [Ex-82B]	criterion not met
CCn1cnc2c(CNC(=O)c3nc(C)c(-c4ncco4)nc3N)cccc21	criterion met
COc1ccccc1CNC(=O)c1nc(C)c(-c2cnco2)nc1N	criterion met

----------
molecular target: human A2a receptor (Homo sapiens)
pKi: −log10 of the molar value.
We use 8 as the dividing line for pKi: on or above the line is label 1, below is label 0.

Compound	Assigned label
COc1cccc(CNC(=O)c2nc(C)c(-c3ncco3)nc2N)n1	label 1
Cc1nc(C(=O)N[C@H]2CCc3ccccc32)c(N)nc1-c1ncco1	label 1
Nc1nc(-n2ccnn2)c(Cl)nc1C(=O)NCc1ccccc1C(F)(F)F	label 0
Cc1nc(C(=O)NC2CCCNC2)c(N)nc1-c1ncco1 (stereo not drawn)	label 0
Cc1cnn(-c2nc(N)c(C(=O)NCc3cn4ccsc4n3)nc2Cl)c1	label 0
Cc1nc(C(=O)NC(C)c2ccccn2)c(N)nc1-c1ncco1 (single isomer, unassigned) [Ex-82A]	label 1

----------
molecular target: human A2a receptor (Homo sapiens)
// map Ki to label using lo (below 1 nM), mid (1 nM to below 10 nM), hi (10 nM or more)

Compound	Test target	Assigned label
Cc1nc(C(=O)NCc2c(F)cccc2F)c(N)nc1-c1cnco1	human A2a receptor (Homo sapiens)	mid
Cc1cccc(CNC(=O)c2nc(C)c(-c3ncco3)nc2N)c1F	human A2a receptor (Homo sapiens)	lo
Cc1cccnc1CNC(=O)c1nc(Cl)c(-n2cccn2)nc1N	human A2a receptor (Homo sapiens)	hi
Cc1nc(C(=O)N[C@H]2CCc3ccc(F)cc32)c(N)nc1-c1ncco1	human A2a receptor (Homo sapiens)	lo
Cc1nc(C(=O)N[C@@H]2CCc3cccnc32)c(N)nc1-c1ncco1	human A2a receptor (Homo sapiens)	mid
Cc1nc(C(=O)NCc2cccc3cc[nH]c23)c(N)nc1-c1ncco1	human A2a receptor (Homo sapiens)	lo
Cc1nc(C(=O)NCC2(C#N)CCC2)c(N)nc1-c1ncco1	human A2a receptor (Homo sapiens)	mid
Cc1nc(C(=O)NCc2cccc(C(C)C)n2)c(N)nc1-c1ncco1	human A2a receptor (Homo sapiens)	lo
Cc1nc(C(=O)N[C@@H]2CCC[C@@H]2O)c(N)nc1-c1ncco1	human A2a receptor (Homo sapiens)	hi
Cc1nc(C(=O)N[C@H]2CC[C@@H](C(F)(F)F)CC2)c(N)nc1-c1ncco1	human A2a receptor (Homo sapiens)	hi
Nc1nc(-n2nccn2)c(Cl)nc1C(=O)NCC1CCCc2cccnc21 (centres unmarked)	human A2a receptor (Homo sapiens)	hi
Nc1nc(-n2nccn2)c(Cl)nc1C(=O)NCc1ccccc1C(F)(F)F	human A2a receptor (Homo sapiens)	mid
Cc1cnc(F)c(CNC(=O)c2nc(C)c(-c3ncco3)nc2N)c1	human A2a receptor (Homo sapiens)	mid
Cc1nc(C(=O)NCc2cccc3c2ncn3CC(F)F)c(N)nc1-c1ncco1	human A2a receptor (Homo sapiens)	lo
Nc1nc(-n2nccn2)c(Cl)nc1C(=O)N[C@H]1C[C@@]1(F)c1ccccc1	human A2a receptor (Homo sapiens)	hi
Cc1nc(C(=O)NCc2cncnc2)c(N)nc1-c1ncco1	human A2a receptor (Homo sapiens)	hi
COC(=O)[C@@H](CO)NC(=O)c1nc(Cl)c(-n2nccn2)nc1N	human A2a receptor (Homo sapiens)	hi
Cc1nc(C(=O)NCc2ncccn2)c(N)nc1-c1ncco1	human A2a receptor (Homo sapiens)	mid
Cc1nc(C(=O)NC2CCCC2F)c(N)nc1-c1ncco1 (centres unmarked)	human A2a receptor (Homo sapiens)	mid
Cc1nc(C(=O)NCc2nn(C)cc2C(F)F)c(N)nc1-c1ncco1	human A2a receptor (Homo sapiens)	mid

Numbers sourced from patent US10472347B2.
